# System: SNB-19 CNS
# method: NCI tumour cell line growth inhibition, 48 h
// reported TGI per item

Past entries and their recorded results:
- molecule: "C/C=C/[C@H](O[Si](C)(C)C(C)(C)C)[C@@H](O)/C=C/C(=O)OCC"
  target-entity: "SNB-19 CNS"
  TGI: "28.7 µM"
- molecule: "CC1(C)[C@H]2Cc3cc(-c4cc5c(cn4)[C@@H]4C[C@H]([C@@H]5[C@@H]5c6cc(-c7cc8c(cn7)[C@@H]7C[C@H](C8)C7(C)C)ncc6[C@@H]6C[C@H]5C6(C)C)C4(C)C)ncc3[C@@H]1C2"
  target-entity: "SNB-19 CNS"
  TGI: "> 100 µM"

## Task Look up SNB-19 CNS data: TGI of `N#Cc1cc(S(=O)(=O)Nc2nc3ccccc3s2)c(SCc2ccccc2)cc1Cl` , then report it.
## Result 47.7 µM

## Task Look up SNB-19 CNS data: TGI of `COP(=O)(OC)/C(=C\c1cn(C(c2ccccc2)(c2ccccc2)c2ccccc2)cn1)NC(C)=O` , then report it.
## Result > 100 µM
